Taken from patent US4450269A.

Tested on: Helminthosporium oryzae
run description: Mycelial growth test
assay context: Bipolaris oryzae, 72 h, read-out: Percent Fungus Growth Inhibition, HO, 20 ppm, 72 hours
Decide by inhibition at 20 ppm: equal to or exceeding 70% means True, less means False.

## Input Can O=C(O)Cc1ccccc1Oc1nsnc(Cl)c1=O be said to have inhibition at 20 ppm at or above 70%?
## Output False

## Input Can O=c1c(Cl)nsnc1Oc1cccc(C(F)(F)F)c1 be said to have inhibition at 20 ppm at or above 70%?
## Output True

## Input Can Cc1ccc(Oc2nsnc(Cl)c2=O)c(Br)c1 be said to have inhibition at 20 ppm at or above 70%?
## Output True

## Input Can O=c1c(Cl)nsnc1Oc1ccc([N+](=O)[O-])cc1Cl be said to have inhibition at 20 ppm at or above 70%?
## Output True

## Input Can Cc1cccc(C)c1Oc1nsnc(Cl)c1=O be said to have inhibition at 20 ppm at or above 70%?
## Output True

## Input Can O=C(Nc1ccccc1)Nc1ccc(Oc2nsnc(Cl)c2=O)cc1 be said to have inhibition at 20 ppm at or above 70%?
## Output False

## Input Can O=C(OCc1ccccc1)Oc1ccc(Oc2nsnc(Cl)c2=O)cc1 be said to have inhibition at 20 ppm at or above 70%?
## Output True

## Input Can CC(C)(C)c1ccc(Oc2nsnc(Cl)c2=O)cc1 be said to have inhibition at 20 ppm at or above 70%?
## Output False

## Input Can O=c1c(Cl)nsnc1Oc1cccc2ccccc12 be said to have inhibition at 20 ppm at or above 70%?
## Output True

---

Test system: Pyricularia oryzae
Type: cell-based
assay context: PO, 1.0 ppm, 48 hours
Exercise: for every item that follows, state its recorded Spore Germination Rating.

## Input Given Cc1ccc(Oc2nsnc(Cl)c2=O)cc1 [Compound 3] , state its recorded Spore Germination Rating.
## Output 0 (0-10)

## Input Given O=c1c(Cl)nsnc1Oc1ccc(O)cc1 [Compound 35] , state its recorded Spore Germination Rating.
## Output 2 (40-60)

## Input Given O=c1c(Cl)nsnc1Oc1ccc(Cl)cc1Cl [Compound 17] , state its recorded Spore Germination Rating.
## Output 0 (0-10)

## Input Given Cc1cc(Cl)c(Oc2nsnc(Cl)c2=O)cc1C [Compound 58] , state its recorded Spore Germination Rating.
## Output 4 (80-100)

## Input Given O=C(O)Cc1ccccc1Oc1nsnc(Cl)c1=O [Compound 45] , state its recorded Spore Germination Rating.
## Output 4 (80-100)

## Input Given O=c1c(Cl)nsnc1Oc1ccc([N+](=O)[O-])cc1Cl [Compound 53] , state its recorded Spore Germination Rating.
## Output 2 (40-60)

## Input Given O=c1c(Cl)nsnc1Oc1cccc(Cl)c1Cl [Compound 19] , state its recorded Spore Germination Rating.
## Output 3 (60-80)

## Input Given CC(=O)Nc1ccccc1Oc1nsnc(Cl)c1=O [Compound 43] , state its recorded Spore Germination Rating.
## Output 4 (80-100)

## Input Given Cc1cc(Oc2nsnc(Cl)c2=O)cc(C)c1Cl [Compound 59] , state its recorded Spore Germination Rating.
## Output 0 (0-10)

## Input Given O=c1c(Cl)nsnc1Oc1ccccc1 [Compound 2] , state its recorded Spore Germination Rating.
## Output 3 (60-80)

## Input Given CC(=O)c1cccc(Oc2nsnc(Cl)c2=O)c1 [Compound 48] , state its recorded Spore Germination Rating.
## Output 3 (60-80)

## Input Given COc1cc(Cl)cc(Oc2nsnc(Cl)c2=O)c1 [Compound 52] , state its recorded Spore Germination Rating.
## Output 4 (80-100)

## Input Given Cc1cc(Oc2nsnc(Cl)c2=O)cc(C)c1Br [Compound 60] , state its recorded Spore Germination Rating.
## Output 0 (0-10)

## Input Given O=c1c(Cl)nsnc1Oc1cccc(C(F)(F)F)c1 [Compound 44] , state its recorded Spore Germination Rating.
## Output 1 (10-40)

## Input Given Cc1cc(C)cc(Oc2nsnc(Cl)c2=O)c1 [Compound 25] , state its recorded Spore Germination Rating.
## Output 3 (60-80)

## Input Given COc1cc(Oc2nsnc(Cl)c2=O)cc(OC)c1C(C)=O [Compound 61] , state its recorded Spore Germination Rating.
## Output 4 (80-100)

## Input Given O=c1c(Cl)nsnc1Oc1c(Cl)cccc1Cl [Compound 18] , state its recorded Spore Germination Rating.
## Output 4 (80-100)

## Input Given CS(=O)(=O)c1ccc(Oc2nsnc(Cl)c2=O)cc1 [Compound 41] , state its recorded Spore Germination Rating.
## Output 4 (80-100)

## Input Given CCCCOc1ccc(Oc2nsnc(Cl)c2=O)cc1 [Compound 6] , state its recorded Spore Germination Rating.
## Output 2 (40-60)

## Input Given Nc1ccc(Oc2nsnc(Cl)c2=O)cc1 [Compound 26] , state its recorded Spore Germination Rating.
## Output 4 (80-100)

## Input Given CCOC(=O)c1ccc(Oc2nsnc(Cl)c2=O)cc1 [Compound 7] , state its recorded Spore Germination Rating.
## Output 1 (10-40)

## Input Given O=C(OCc1ccccc1)Oc1ccc(Oc2nsnc(Cl)c2=O)cc1 [Compound 38] , state its recorded Spore Germination Rating.
## Output 4 (80-100)

---

Tested on: Uromyces phaseoli
run description: whole plant or invertebrate
assay context: foliar, 24 h, read-out: Percent Disease Control, curative, bean rust
Exercise: for every item that follows, state its recorded pest or weed control at 150 ppm.
I only need the number, in %, no unit after it.

## Input Given CC(=O)c1ccccc1Oc1nsnc(Cl)c1=O , state its recorded pest or weed control at 150 ppm.
## Output 0

## Input Given Cc1ccc(Cl)c(Oc2nsnc(Cl)c2=O)c1 , state its recorded pest or weed control at 150 ppm.
## Output 100

## Input Given COc1ccc(Cl)c(Oc2nsnc(Cl)c2=O)c1 , state its recorded pest or weed control at 150 ppm.
## Output 0

## Input Given O=c1c(Cl)nsnc1Oc1c(Cl)c(Cl)c(Cl)c(Cl)c1Cl , state its recorded pest or weed control at 150 ppm.
## Output 0

## Input Given O=c1c(Cl)nsnc1Oc1c(Cl)cccc1Cl , state its recorded pest or weed control at 150 ppm.
## Output 0

---

Exercise: for every item that follows, state its recorded Spore Germination Rating.
System: Erysiphe polygoni
run description: Spore germination test
Type: cell-based
assay context: EP, 10 ppm, 48 hours

## Input Given O=c1c(Cl)nsnc1Oc1ccc(Cl)cc1Cl , state its recorded Spore Germination Rating.
## Output 0 (0-10)

## Input Given CCCCOc1ccc(Oc2nsnc(Cl)c2=O)cc1 , state its recorded Spore Germination Rating.
## Output 0 (0-10)

## Input Given O=c1c(Cl)nsnc1Oc1cc(Cl)cc(Cl)c1 , state its recorded Spore Germination Rating.
## Output 0 (0-10)

## Input Given O=c1c(Cl)nsnc1Oc1c(Cl)cccc1Cl , state its recorded Spore Germination Rating.
## Output 0 (0-10)

## Input Given O=c1c(Cl)nsnc1Oc1ccc(Cl)cc1 , state its recorded Spore Germination Rating.
## Output 2 (40-60)

## Input Given O=c1c(Cl)nsnc1Oc1cccc(Cl)c1Cl , state its recorded Spore Germination Rating.
## Output 0 (0-10)

---

Exercise: for every item that follows, state its recorded pest or weed control at 150 ppm, 3.8 mg/pot.
Tested on: Fusarium solani
run description: Soil treatment, bean root rot
Format: in vivo
assay context: Fusarium solani, soil, 336 h; 150 ppm suspension, 3.8 mg active per pot; read-out: Percent Disease Control, seed/soil, bean root rot
Experimental: In a similar manner the soil around a bean seedling was drenched with a sufficient amount of 150 ppm suspension of test chemical to provide 3.8 mg active per pot. Twenty-four hours later the soil was inoculated with a suspension of minced mycelium of Fusarium solani. The inoculated plants were then placed in a greenhouse, evaluated after fourteen days, and percent control of root rot damage calculated. […]
I only need the number, in %, no unit after it.

## Input Notebook entry, Fusarium solani assay: pest or weed control at 150 ppm, 3.8 mg/pot of O=c1c(Cl)nsnc1Oc1cccc2ccccc12 [Compound 32] = ?
## Output 0

## Input Notebook entry, Fusarium solani assay: pest or weed control at 150 ppm, 3.8 mg/pot of Cc1ccccc1Oc1nsnc(Cl)c1=O [Compound 22] = ?
## Output 0

## Input Notebook entry, Fusarium solani assay: pest or weed control at 150 ppm, 3.8 mg/pot of CC(=O)Nc1ccccc1Oc1nsnc(Cl)c1=O [Compound 43] = ?
## Output 0

## Input Notebook entry, Fusarium solani assay: pest or weed control at 150 ppm, 3.8 mg/pot of O=c1c(Cl)nsnc1Oc1ccccc1Cl [Compound 14] = ?
## Output 90

## Input Notebook entry, Fusarium solani assay: pest or weed control at 150 ppm, 3.8 mg/pot of CC(=O)c1ccccc1Oc1nsnc(Cl)c1=O [Compound 49] = ?
## Output 0

## Input Notebook entry, Fusarium solani assay: pest or weed control at 150 ppm, 3.8 mg/pot of O=c1c(Cl)nsnc1Oc1c(Cl)c(Cl)c(Cl)c(Cl)c1Cl [Compound 31] = ?
## Output 0

## Input Notebook entry, Fusarium solani assay: pest or weed control at 150 ppm, 3.8 mg/pot of O=c1c(Cl)nsnc1Oc1cccc(C(F)(F)F)c1 [Compound 44] = ?
## Output 90

## Input Notebook entry, Fusarium solani assay: pest or weed control at 150 ppm, 3.8 mg/pot of Cc1cccc(Oc2nsnc(Cl)c2=O)c1 [Compound 21] = ?
## Output 0

## Input Notebook entry, Fusarium solani assay: pest or weed control at 150 ppm, 3.8 mg/pot of O=c1c(Cl)nsnc1Oc1cccc(Cl)c1 [Compound 13] = ?
## Output 75

## Input Notebook entry, Fusarium solani assay: pest or weed control at 150 ppm, 3.8 mg/pot of CCOC(=O)c1ccc(Oc2nsnc(Cl)c2=O)cc1 [Compound 7] = ?
## Output 98

## Input Notebook entry, Fusarium solani assay: pest or weed control at 150 ppm, 3.8 mg/pot of Cc1cc(C)cc(Oc2nsnc(Cl)c2=O)c1 [Compound 25] = ?
## Output 0
